# Experimental target: T1, human tissue factor (TF) on human bladder carcinoma cells J82 (human, UniProt P13726 33-295)
# T1 construct: whole, on cells; also called the antigen; J82 cells
# T1 sequence (P13726 33-295): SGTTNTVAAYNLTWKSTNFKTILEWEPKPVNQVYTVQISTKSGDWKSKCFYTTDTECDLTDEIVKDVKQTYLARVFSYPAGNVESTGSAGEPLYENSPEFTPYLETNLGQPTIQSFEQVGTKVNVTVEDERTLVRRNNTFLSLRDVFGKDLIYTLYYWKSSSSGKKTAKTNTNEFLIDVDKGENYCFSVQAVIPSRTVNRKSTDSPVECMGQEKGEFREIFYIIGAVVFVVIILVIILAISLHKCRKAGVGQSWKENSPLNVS
# Method: cell ELISA on paraformaldehyde-fixed J82 cells; AP-conjugated goat anti-human IgGγ; absorbance 405/655 nm
Quantity name: EC50 (read off the curve)

Some solved cases for reference:
H chain humanized version d/L chain chimeric antibody (antibody, IgG4, V domains shown, L chain V region is that of mouse ATR-5; also called d-ch) VH: QVQLLESGAVLARPGTSVKISCKASGFNIKDYYMHWVKQRPGQGLEWIGGNDPANGHSMYDPKFQGRVTITADESTSTAYMELSSLRSEDSAVYFCARDSGYAMDYWGQGTLVTVSS VL: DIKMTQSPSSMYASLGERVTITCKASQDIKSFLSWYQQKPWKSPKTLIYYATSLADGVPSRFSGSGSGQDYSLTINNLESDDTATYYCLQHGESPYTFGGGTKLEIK | ~70 ng/mL
H chain humanized version c/L chain chimeric antibody (antibody, IgG4, V domains shown, L chain V region is that of mouse ATR-5; also called c-ch) VH: QVQLLESGAVLARPGTSVKISCKASGFNIKDYYMHWVKQRPGQGLEWIGGNDPANGHSMYDPKFQGRVTMLVDTSKNQFSLRLSSVTAADTAVYYCARDSGYAMDYWGQGTLVTVSS VL: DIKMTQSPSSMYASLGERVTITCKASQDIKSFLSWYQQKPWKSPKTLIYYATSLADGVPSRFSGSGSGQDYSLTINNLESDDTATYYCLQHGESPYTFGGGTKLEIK | ~90 ng/mL

Let us examine a further case.
I'd like to know its EC50 (read off the curve). The binder in question is H chain chimeric/L chain chimeric antibody (chimeric ATR-5 antibody) (antibody, V domains shown, Mouse ATR-5 V regions joined to human C regions; Both an IgG1 (N5KG1(V)) and an IgG4 (N5KG4P) kappa form were made; also called ch-ch; cha-cha) VH: EVQLQQSGTNLVRPGALVKLSCKGSGFNIKDYYMHWVKQRPEQGLEWIGGNDPANGHSMYDPKFQGKASITADTSSNTAYLQLSSLTSEDTAVYFCARDSGYAMDYWGQGTSVTVSS VL: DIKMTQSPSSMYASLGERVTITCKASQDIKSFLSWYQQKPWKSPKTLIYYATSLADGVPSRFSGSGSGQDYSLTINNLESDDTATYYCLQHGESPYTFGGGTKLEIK
~70 ng/mL

Recorded values, source patent US7494647.
